B1: Homeobox protein cut-like 1, residues 548 to 629; numbered along this chain, P39880 (parent)
chain: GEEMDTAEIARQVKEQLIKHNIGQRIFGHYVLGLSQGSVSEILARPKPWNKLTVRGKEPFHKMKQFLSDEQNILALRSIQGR

variants of: B1; experiment: abundance fitness (aPCA) (normalised: wild type 0, dead -1); higher = more abundant; growth selection in yeast, the domain comes from the species named; details: Homo sapiens
readout.type: abundance fitness
No unit in the answer, only the number.

Use the examples below as a reference point.
{"columns": ["mutation.id", "abundance fitness"],
 "data": [
  ["K64R", -0.049],
  ["H61E", 0.021],
  ["E15C", 0.094],
  ["T53W", -0.566],
  ["I42C", -0.253],
  ["R11P", -0.646],
  ["E58L", -0.121],
  ["A10D", -0.835]
]}

Request the reported abundance fitness associated with E15T -0.143

Request the reported abundance fitness associated with L74F -0.028

Request the reported abundance fitness associated with I9Q -0.583
